System: 324938-238-R-J1-PDC complex spheroids viability
Protocol description: Anticancer human tumor 324938-238-R-J1-PDC patient-derived bladder carcinoma cell line growth inhibition [CLK]
Reported conditions: second compound 0.0316 µM; first compound 0.01 µM; active compounds read low
Give measured viability, T/C for each item. Keep answers brief.
// return numeric value only (unit: %, not printed)

Exercise: Tell me measured viability, T/C for CCc1c2c(nc3ccc(O)cc13)-c1cc3c(c(=O)n1C2)COC(=O)[C@]3(O)CC + CNC(=O)c1ccc(Nc2nc(OC3CCCC3)c3c(-c4ccc5nc(C)oc5c4)c[nH]c3n2)c(OC)c1 please.
Solution: 12.3

Exercise: Tell me measured viability, T/C for CCc1c2c(nc3ccc(O)cc13)-c1cc3c(c(=O)n1C2)COC(=O)[C@]3(O)CC + CN1CCN(c2cc(C(=O)Nc3cc4cc(-c5cnn(C)c5)ccc4cn3)ccn2)CC1 please.
Solution: 10.1

Exercise: Tell me measured viability, T/C for Cn1ncnc1[C@H]1c2n[nH]c(=O)c3cc(F)cc(c23)N[C@@H]1c1ccc(F)cc1 + CNC(=O)c1ccc(Nc2nc(OC3CCCC3)c3c(-c4ccc5nc(C)oc5c4)c[nH]c3n2)c(OC)c1 please.
Solution: 54.8

Exercise: Tell me measured viability, T/C for Cn1ncnc1[C@H]1c2n[nH]c(=O)c3cc(F)cc(c23)N[C@@H]1c1ccc(F)cc1 + CN1CCN(c2cc(C(=O)Nc3cc4cc(-c5cnn(C)c5)ccc4cn3)ccn2)CC1 please.
Solution: 51.9

Exercise: Tell me measured viability, T/C for COc1c(OCCCN2CCOCC2)ccc2c3n(c(=NC(=O)c4cnc(N)nc4)nc12)CCN3 + CN1CCN(c2cc(C(=O)Nc3cc4cc(-c5cnn(C)c5)ccc4cn3)ccn2)CC1 please.
Solution: 59.6

* * *

Test system: 324938-238-R-J1-PDC complex spheroids viability
Protocol description: Anticancer human tumor 324938-238-R-J1-PDC cell line growth inhibition [CLK]; active = viability on the fitted dose curve at most 10% of control; inactive = the rest;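 note: viability read after seven days of drug exposure; 100% = DMSO vehicle control wells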
Reported conditions: second compound 0.0316 µM; first compound 3.16 µM
# output must be one of Y for active, N for inactive

Exercise: Hi, sorry to bother you, what did the test record for Nc1ccn(C2OC(CO)C(O)C2(F)F)c(=O)n1 (stereo unspecified) + CN1CCN(c2cc(C(=O)Nc3cc4cc(-c5cnn(C)c5)ccc4cn3)ccn2)CC1 ?
Solution: Y

Exercise: Hi, sorry to bother you, what did the test record for C#Cc1c(F)ccc2cc(O)cc(-c3ncc4c(N5CC6CCC(C5)N6)nc(OCC56CCCN5CC(F)C6)nc4c3F)c12 (stereo unspecified) + CNC(=O)c1ccc(Nc2nc(OC3CCCC3)c3c(-c4ccc5nc(C)oc5c4)c[nH]c3n2)c(OC)c1 ?
Solution: N

Exercise: Hi, sorry to bother you, what did the test record for C=C(F)C(=O)N1CCN(c2nc(OCC3CCCN3C)nc3c2CCN(c2cccc4cccc(Cl)c24)C3)CC1CC#N (stereo unspecified) + CN1CCN(c2cc(C(=O)Nc3cc4cc(-c5cnn(C)c5)ccc4cn3)ccn2)CC1 ?
Solution: N

Exercise: Hi, sorry to bother you, what did the test record for O=c1[nH]cc(F)c(=O)[nH]1 + CN1CCN(c2cc(C(=O)Nc3cc4cc(-c5cnn(C)c5)ccc4cn3)ccn2)CC1 ?
Solution: N

Exercise: Hi, sorry to bother you, what did the test record for CC1COCCN1c1cc(C2(S(C)(=N)=O)CC2)nc(-c2ccnc3[nH]ccc23)n1 (stereo unspecified) + CN1CCN(c2cc(C(=O)Nc3cc4cc(-c5cnn(C)c5)ccc4cn3)ccn2)CC1 ?
Solution: N

Exercise: Hi, sorry to bother you, what did the test record for O=C(c1cc(Cc2n[nH]c(=O)c3ccccc23)ccc1F)N1CCN(C(=O)C2CC2)CC1 + CNC(=O)c1ccc(Nc2nc(OC3CCCC3)c3c(-c4ccc5nc(C)oc5c4)c[nH]c3n2)c(OC)c1 ?
Solution: N

Exercise: Hi, sorry to bother you, what did the test record for C=CC(=O)N1CCN(c2nc(=O)n(-c3c(C)ccnc3C(C)C)c3nc(-c4c(O)cccc4F)c(F)cc23)C(C)C1 (stereo unspecified) + CN1CCN(c2cc(C(=O)Nc3cc4cc(-c5cnn(C)c5)ccc4cn3)ccn2)CC1 ?
Solution: N

Exercise: Hi, sorry to bother you, what did the test record for COC1C=CCC(C)C(C)S(=O)(=O)NC(=O)c2ccc3c(c2)N(CC2CCC21)CC1(CCCc2cc(Cl)ccc21)CO3 (stereo unspecified) + CN1CCN(c2cc(C(=O)Nc3cc4cc(-c5cnn(C)c5)ccc4cn3)ccn2)CC1 ?
Solution: N

Exercise: Hi, sorry to bother you, what did the test record for Nc1ccccc1NC(=O)c1ccc(CNC(=O)OCc2cccnc2)cc1 + CNC(=O)c1ccc(Nc2nc(OC3CCCC3)c3c(-c4ccc5nc(C)oc5c4)c[nH]c3n2)c(OC)c1 ?
Solution: N

Exercise: Hi, sorry to bother you, what did the test record for O=C(c1cc(Cc2n[nH]c(=O)c3ccccc23)ccc1F)N1CCN(C(=O)C2CC2)CC1 + CN1CCN(c2cc(C(=O)Nc3cc4cc(-c5cnn(C)c5)ccc4cn3)ccn2)CC1 ?
Solution: N

Exercise: Hi, sorry to bother you, what did the test record for CC1(C)CCC(CN2CCN(c3ccc(C(=O)NS(=O)(=O)c4ccc(NCC5CCOCC5)c([N+](=O)[O-])c4)c(Oc4cnc5[nH]ccc5c4)c3)CC2)=C(c2ccc(Cl)cc2)C1 + CN1CCN(c2cc(C(=O)Nc3cc4cc(-c5cnn(C)c5)ccc4cn3)ccn2)CC1 ?
Solution: N

* * *

Test system: 324938-238-R-J1-PDC complex spheroids viability
Protocol description: Anticancer human tumor 324938-238-R-J1-PDC cell line growth inhibition [CLK]; active means viability on the fitted dose curve at most 10% of control; inactive means the rest;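 note: viability read after seven days of drug exposure; 100% = DMSO vehicle control wells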
Reported conditions: second compound 10 µM; first compound 0.1 µM
# output must be one of t for active, f for inactive

Exercise: Hi, sorry to bother you, what did the test record for C#Cc1c(F)ccc2cc(O)cc(-c3ncc4c(N5CC6CCC(C5)N6)nc(OCC56CCCN5CC(F)C6)nc4c3F)c12 (centres undefined) + CN1CCN(c2cc(C(=O)Nc3cc4cc(-c5cnn(C)c5)ccc4cn3)ccn2)CC1 ?
Solution: t

Exercise: Hi, sorry to bother you, what did the test record for CC1COCCN1c1cc(C2(S(C)(=N)=O)CC2)nc(-c2ccnc3[nH]ccc23)n1 (centres undefined) + CNC(=O)c1ccc(Nc2nc(OC3CCCC3)c3c(-c4ccc5nc(C)oc5c4)c[nH]c3n2)c(OC)c1 ?
Solution: f

Exercise: Hi, sorry to bother you, what did the test record for C=CC(=O)N1CCN(c2nc(=O)n(-c3c(C)ccnc3C(C)C)c3nc(-c4c(O)cccc4F)c(F)cc23)C(C)C1 (centres undefined) + CN1CCN(c2cc(C(=O)Nc3cc4cc(-c5cnn(C)c5)ccc4cn3)ccn2)CC1 ?
Solution: t

Exercise: Hi, sorry to bother you, what did the test record for CC1(C)CCC(CN2CCN(c3ccc(C(=O)NS(=O)(=O)c4ccc(NCC5CCOCC5)c([N+](=O)[O-])c4)c(Oc4cnc5[nH]ccc5c4)c3)CC2)=C(c2ccc(Cl)cc2)C1 + CN1CCN(c2cc(C(=O)Nc3cc4cc(-c5cnn(C)c5)ccc4cn3)ccn2)CC1 ?
Solution: t

Exercise: Hi, sorry to bother you, what did the test record for CCN1CCN(Cc2ccc(Nc3ncc(F)c(-c4cc(F)c5nc(C)n(C(C)C)c5c4)n3)nc2)CC1 + CN1CCN(c2cc(C(=O)Nc3cc4cc(-c5cnn(C)c5)ccc4cn3)ccn2)CC1 ?
Solution: t

Exercise: Hi, sorry to bother you, what did the test record for CCCS(=O)(=O)Nc1ccc(F)c(C(=O)c2c[nH]c3ncc(-c4ccc(Cl)cc4)cc23)c1F + CN1CCN(c2cc(C(=O)Nc3cc4cc(-c5cnn(C)c5)ccc4cn3)ccn2)CC1 ?
Solution: t

Exercise: Hi, sorry to bother you, what did the test record for COc1cccc2c1C(=O)c1c(O)c3c(c(O)c1C2=O)CC(O)(C(=O)CO)CC3OC1CC(N)C(O)C(C)O1 (centres undefined) + CNC(=O)c1ccc(Nc2nc(OC3CCCC3)c3c(-c4ccc5nc(C)oc5c4)c[nH]c3n2)c(OC)c1 ?
Solution: f

Exercise: Hi, sorry to bother you, what did the test record for CC(=O)O[C@H]1C(=O)[C@@]2(C)[C@H]([C@H](OC(=O)c3ccccc3)[C@]3(O)C[C@H](OC(=O)[C@H](O)[C@@H](NC(=O)c4ccccc4)c4ccccc4)C(C)=C1C3(C)C)[C@]1(OC(C)=O)CO[C@@H]1C[C@@H]2O + CNC(=O)c1ccc(Nc2nc(OC3CCCC3)c3c(-c4ccc5nc(C)oc5c4)c[nH]c3n2)c(OC)c1 ?
Solution: f

Exercise: Hi, sorry to bother you, what did the test record for Nc1ccn(C2OC(CO)C(O)C2(F)F)c(=O)n1 (centres undefined) + CNC(=O)c1ccc(Nc2nc(OC3CCCC3)c3c(-c4ccc5nc(C)oc5c4)c[nH]c3n2)c(OC)c1 ?
Solution: f

* * *

Give measured viability, T/C for each item. Keep answers brief.
Test system: 324938-238-R-J1-PDC complex spheroids viability
Protocol description: Anticancer human tumor 324938-238-R-J1-PDC cell line growth inhibition [CLK];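 note: viability read after seven days of drug exposure; 100% = DMSO vehicle control wells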
Reported conditions: second compound 0.1 µM; first compound 0.00316 µM; active compounds read low
// return numeric value only (unit: %, not printed)

Exercise: Tell me measured viability, T/C for CCN1CCN(Cc2ccc(Nc3ncc(F)c(-c4cc(F)c5nc(C)n(C(C)C)c5c4)n3)nc2)CC1 + CNC(=O)c1ccc(Nc2nc(OC3CCCC3)c3c(-c4ccc5nc(C)oc5c4)c[nH]c3n2)c(OC)c1 please.
Solution: 32.2

Exercise: Tell me measured viability, T/C for COc1c(OCCCN2CCOCC2)ccc2c3n(c(=NC(=O)c4cnc(N)nc4)nc12)CCN3 + CN1CCN(c2cc(C(=O)Nc3cc4cc(-c5cnn(C)c5)ccc4cn3)ccn2)CC1 please.
Solution: 55.8

Exercise: Tell me measured viability, T/C for Cn1ncnc1[C@H]1c2n[nH]c(=O)c3cc(F)cc(c23)N[C@@H]1c1ccc(F)cc1 + CNC(=O)c1ccc(Nc2nc(OC3CCCC3)c3c(-c4ccc5nc(C)oc5c4)c[nH]c3n2)c(OC)c1 please.
Solution: 21.8

Hey, just so you know, these numbers are from PubChem BioAssay AID2060621.
